All values here come from ChEMBL document CHEMBL1143621.

Molecular target: Estrogen-related receptor gamma (Homo sapiens, UniProt P62508)
Sequence (P62508 whole entry): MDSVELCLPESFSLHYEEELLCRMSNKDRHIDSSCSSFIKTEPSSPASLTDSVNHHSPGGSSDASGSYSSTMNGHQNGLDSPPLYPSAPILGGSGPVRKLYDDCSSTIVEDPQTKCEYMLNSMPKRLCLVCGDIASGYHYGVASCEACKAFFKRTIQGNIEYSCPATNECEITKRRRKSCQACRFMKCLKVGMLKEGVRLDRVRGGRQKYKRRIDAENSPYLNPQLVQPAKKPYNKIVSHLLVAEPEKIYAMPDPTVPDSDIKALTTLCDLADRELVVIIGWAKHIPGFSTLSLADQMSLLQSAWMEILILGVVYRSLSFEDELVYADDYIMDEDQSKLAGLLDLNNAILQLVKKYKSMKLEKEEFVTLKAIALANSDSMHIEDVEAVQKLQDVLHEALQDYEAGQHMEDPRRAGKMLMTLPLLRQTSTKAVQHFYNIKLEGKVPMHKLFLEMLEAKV
Test: Estrogen-Related Receptor gamma activity in FRET assay
Type: functional
Assay Readout: EC50 (nM)

Mol Smiles: CCN(CC)c1ccc(/C=N/NC(=O)c2ccc(N)cc2)cc1
Tested Target: Estrogen-related receptor gamma (Homo sapiens, UniProt P62508)
Assay Readout: EC50
Reported: 630
--
Mol Smiles: CCN(CC)c1ccc(/C=N/NC(=O)c2ccccc2)cc1
Tested Target: Estrogen-related receptor gamma (Homo sapiens, UniProt P62508)
Assay Readout: EC50
Reported: 1600
--
Mol Smiles: CCN(CC)c1ccc(/C=N/NC(=O)c2ccc(O)cc2)cc1
Tested Target: Estrogen-related receptor gamma (Homo sapiens, UniProt P62508)
Assay Readout: EC50
Reported: 130
--
Mol Smiles: CCN(CC)c1ccc(/C(C)=N/NC(=O)c2ccc(O)cc2)cc1
Tested Target: Estrogen-related receptor gamma (Homo sapiens, UniProt P62508)
Assay Readout: EC50
Reported: 500

----------
Target: Estrogen-related receptor gamma (Homo sapiens, UniProt P62508)
Assay: Estrogen-Related Receptor gamma activity in FRET assay; i.a.=inactive at 3 uM
Format: functional

Mol Smiles: CC(C)(C)Oc1ccc(/C=N/NC(=O)c2ccc(O)cc2)cc1
EC50: Not Active
--
Mol Smiles: CCN(CC)c1ccc(/C=N/NC(=O)c2ccc(O)cc2)c(O)c1
EC50: Not Active
--
Mol Smiles: CC(C)c1ccc(C(=O)NNC(=O)c2ccc(O)cc2)cc1
EC50: Not Active
--
Mol Smiles: CCN(CC)c1ccc(/C=N/NC(=O)c2ccc(F)cc2)cc1
EC50: Not Active
--
Mol Smiles: CCN(CC)c1ccc(/C=N/NS(=O)(=O)c2ccc(O)cc2)cc1
EC50: Not Active
